Tested on: MLL-AF9/FLT3-ITD cells
Format: cell-based
Particulars: Homo sapiens, MLL-AF9, Table 10
I'd appreciate it if you could supply pIC50 values for the items below.
Numbers only, as −log10 of the molar value.

# count of solved cases: 3
| Molecule | Assay Readout | Observed Value |
| --- | --- | --- |
| COc1cc2ncc(-c3cccc(NC4CCNC4)n3)n2cc1OC (centres unmarked) | pIC50 | 7.77 |
| Cc1ccc(-c2cnc3ccc(Cl)cn23)nc1NC1CNC1 | pIC50 | 5.55 |
| O=C(c1ccccc1)N1CC(Nc2cccc(-c3cnc4ccc(Cl)cn34)n2)C1 | pIC50 | 6.15 |

I have 2 molecules here; please give me pIC50 for each one.
1. Cc1ccc(NC2CNC2)nc1-c1cnc2ccc(Cl)cn12
2. Cn1cc(-c2ccc3ncc(-c4cccc(NC5CNC5)n4)n3c2)cn1

[6.05, 6.67]

* * *

System Under Test: CDK7 (Homo sapiens (Human), UniProt P50613)
Assay Summary: KiNativ in situ kinase profiling in MV4:11 cell lysates
Type: biochemical
Assay Readout: IC50

What value of measured IC50 is listed for COc1cc2ncc(-c3cccc(NC4CCNC4)n3)n2cc1-c1cnn(C)c1 (stereo not shown) ?
< 250 nM

* * *

System Under Test: UniProtKB P07948
Assay Summary: KiNativ in situ kinase profiling in MV4:11 cell lysates
Assay Readout: IC50

What value of measured IC50 is listed for COc1cc2ncc(-c3cccc(NC4CCNC4)n3)n2cc1-c1cnn(C)c1 (stereo not shown) [Compound I-24] ?
< 250 nM

* * *

System Under Test: PCTAIRE3 (Homo sapiens (Human))
Assay Summary: KiNativ in situ kinase profiling in MV4:11 cell lysates
Assay Readout: IC50

What value of measured IC50 is listed for COc1cc2ncc(-c3cccc(NC4CCNC4)n3)n2cc1-c1cnn(C)c1 (stereo not shown) ?
< 250 nM

* * *

I'd appreciate it if you could supply Stability values for the items below.
Assay Summary: Rat microsomal stability (RLM)
Assay type: in vitro ADME
Particulars: Table 10

| Molecule | Stability |
| --- | --- |
| COc1cc2ncc(-c3cccc(NC4CCNC4)n3)n2cc1-c1cnn(CCN2CCOCC2)c1 (stereo not shown) | >30.0 min |
| COc1cc2ncc(-c3nc(NC4CCNC4)c(F)cc3F)n2cc1-c1cn[nH]c1 (stereo not shown) | 9.3 min |
| Clc1ccc2ncc(-c3cccc(NC4CCCNC4)n3)n2c1 (stereo not shown) | >30.0 min |
| COc1cc2ncc(-c3cccc(NC4CCNC4)n3)n2cc1-c1c(C)n[nH]c1C (stereo not shown) | >30.0 min |
| O=C(c1ccccc1)N1CC(Nc2cccc(-c3cnc4ccc(Cl)cn34)n2)C1 | 8.0 min |
| Clc1cn2c(-c3cccc(NC4CCNC4)n3)cnc2cc1OCCN1CCOCC1 (stereo not shown) | >30.0 min |

Please turn your attention to the following entry.
What value of measured Stability is listed for `CC(=O)N1CC(Nc2cccc(-c3cnc4ccc(Cl)cn34)n2)C1` ?
>30.0 min

* * *

Assay Summary: Rat microsomal stability (RLM)
Format: in vitro ADME
Particulars: Table 10
Assay Readout: Stability

| Compound | Stability |
| --- | --- |
| Clc1cc2ncc(-c3cccc(NC4CNC4)n3)n2cc1Cl | >30.0 min |
| COc1ccn2c(-c3cccc(NC4CNC4)n3)cnc2c1 | >30.0 min |
| Clc1ccc2ncc(-c3cccc(NC4CCNCC4)n3)n2c1 | >30.0 min |
| Cn1cc(-c2ccc3ncc(-c4cccc(NC5CNC5)n4)n3c2)cn1 | >30.0 min |
| COc1cc2ncc(-c3cccc(NC4CCNC4)n3)n2cc1OC (stereo not shown) | >30.0 min |

I have 5 compounds here; please give me Stability for each one.
1. COc1cc(-c2cn[nH]c2)cn2c(-c3cccc(NC4CCNC4)n3)cnc12 (stereo not shown)
2. COc1cc2ncc(-c3cccc(NC4CCNC4)n3)n2cc1-c1nnn[nH]1 (stereo not shown)
3. COc1cc2ncc(-c3cccc(OC4CCNC4)n3)n2cc1-c1cn[nH]c1 (stereo not shown)
4. c1cc(NC2CCNC2)nc(-c2cnc3cc(OCCN4CCOCC4)c(-c4cn[nH]c4)cn23)c1 (stereo not shown)
5. COc1cc2ncc(-c3cccc(NC4CCCNC4)n3)n2cc1-c1cn[nH]c1 (stereo not shown)

["2.3 min", ">30.0 min", "7.7 min", ">30.0 min", "9.8 min"]

* * *

I'd appreciate it if you could supply pIC50 values for the items below.
Test system: MLL-AF9/FLT3-ITD cells
Type: cell-based
Particulars: Homo sapiens, MLL-AF9, Table 10
Numbers only, as −log10 of the molar value.

| Compound | pIC50 |
| --- | --- |
| c1cc(N[C@@H]2CCNC2)nc(-c2cnc3ccc(-c4cn[nH]c4)cn23)c1 | 7.12 |
| Clc1cc2ncc(-c3cccc(NC4CNC4)n3)n2cc1Cl | 6.81 |
| Brc1ccc2ncc(-c3cccc(NC4CNC4)n3)n2c1 | 7.07 |
| c1cc(NC2CCNC2)nc(-c2cnc3ccc(-c4cn[nH]c4)cn23)c1 (centres unmarked) | 6.97 |

Please turn your attention to the following entry.
What value of measured pIC50 is listed for `Clc1ccc2ncc(-c3cccc(NC4CNC4)n3)n2c1` ?
5.93
